Test system: mouse embryo DNA-polymerase I (ME-DNA-P1)
Procedure text: effect on mouse embryo DNA-polymerase I
Assay type: biochemical
Test settings: 100μg; activated Calf-Thymus DNA
Kindly supply the reported % Control Activity of ME-DNA-P1 at 100μg values for the records listed here.
A number alone suffices; assume %.

[Q] Please give the measured % Control Activity of ME-DNA-P1 at 100μg for this compound: COC1C=COC2(C)Oc3c(C)c(O)c4c(c3C2=O)C2(C=C(NC(=O)C(C)=CC=CC(C)C(O)C(C)C(O)C(C)C(OC(C)=O)C1C)C4=O)OCC(=O)O2 (stereo not drawn) [rifamycin O]
[A] 65

[Q] Please give the measured % Control Activity of ME-DNA-P1 at 100μg for this compound: COC1C=COC2(C)Oc3c(C)c(O)c4c(O)c(cc(OCC(=O)O)c4c3C2=O)NC(=O)C(C)=CC=CC(C)C(O)C(C)C(O)C(C)C(OC(C)=O)C1C (stereo not drawn) [rifamycin B]
[A] 81

[Q] Please give the measured % Control Activity of ME-DNA-P1 at 100μg for this compound: CO[C@H]1/C=C/O[C@@]2(C)Oc3c(C)c(O)c4c(O)c(cc(O)c4c3C2=O)NC(=O)/C(C)=C\C=C\[C@H](C)[C@H](O)[C@@H](C)[C@@H](O)[C@@H](C)[C@H](OC(C)=O)[C@@H]1C [rifamycin SV]
[A] 105

Hey, just so you know, these numbers are from patent US4005076A.
